Let's go through some IC50 measurements on UniProtKB A0A7I8E9L1 together.
Sequence (A0A7I8E9L1 entry or part of it): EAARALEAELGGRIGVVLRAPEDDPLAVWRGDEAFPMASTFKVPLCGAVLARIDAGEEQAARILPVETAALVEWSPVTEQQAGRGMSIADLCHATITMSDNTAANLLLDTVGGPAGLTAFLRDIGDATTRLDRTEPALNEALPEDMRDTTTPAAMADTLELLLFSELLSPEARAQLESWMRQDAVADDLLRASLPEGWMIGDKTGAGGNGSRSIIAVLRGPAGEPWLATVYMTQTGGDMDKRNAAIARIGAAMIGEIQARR
State the answer as a number, implicitly in µM.

smi=O=C(O)[C@H]1/C(=C/CO)O[C@@H]2CC(=O)N21 measured_attribute=IC50 output_unit=µM recorded_number=0.21

For the next question, use this compound.
Sure, the documented IC50 for "CC1(C)[C@H](C(=O)O)N2C(=O)C[C@H]2S1(=O)=O" is 1.2
